Reported values of TGI for individual entries
- System: HOP-62 NSCLC
- runDescription: NCI tumour cell line growth inhibition, 48 h
recordedMetric: TGI

compound	recordedMetric	dataValue
O=c1ccn(C2(CO)C=C(CO)C(O)C2O)c(=O)[nH]1 (stereo not drawn)	TGI	> 25.7 µM
COc1ccc([C@H]2c3cc4c(cc3OC(O)(CO)[C@H]2C(=O)O)OCO4)c(OC)c1 (stereo partly drawn) (tested in a mixture with another compound)	TGI	> 100 µM
CC1(C)CN=CC(C)(OCc2ccccc2)C(=O)NC(C)(C)CN=CC(C)(OCc2ccccc2)C(=O)N1 (stereo not drawn)	TGI	> 10 µM
O=C1O[C@H]2C3C4CCC(C4[C@@H]2I)[C@H]13 (stereo partly drawn)	TGI	> 100 µM
O=C1/C(=C/c2ccc(Cl)c(Cl)c2)CNC/C1=C\c1ccc(Cl)c(Cl)c1	TGI	38.8 µM
CC(C)CN1CC(C)C(=O)NC1=O (stereo not drawn)	TGI	> 100 µM
COc1ccc(N=Nc2c(-c3ccccc3)nn(C(=O)CC(=O)Nc3ccccc3Cl)c2-c2ccccc2)cc1	TGI	> 100 µM
O=C(Oc1ccccc1Cl)c1ccccc1Nc1cccc(C(F)(F)F)c1	TGI	70.5 µM
